Source of measurements: the supplement of paper PMC9112550

- Tested on: Escherichia coli TOP10;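 note: peptides expressed intracellularly from a pBAD plasmid library in pooled LB shake-flask culture, induced with 0.3% L-arabinose, DNA abundance read by NGS, three biological replicates, DESeq2 with apeglm shrinkage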
- assay_info: shrunken log2 fold change of peptide-encoding DNA abundance (4.5 h post-induction vs induction); higher = less antimicrobial activity (less host growth inhibition)
- test_settings: time post-induction: 4.5 h; library: site-saturation at positions 5, 18, 19, 20
Kindly return class 1 if reported shrunken log2 fold change is no lower than 0.09; return class 0 if it is lower.

{"residue_codes": "RRIRFRPPRLPRPRPRPRKYPRP", "classification": "class 0"}
{"residue_codes": "RRIRWRPPRLPRPRPRPGGAPRP", "classification": "class 1"}
{"residue_codes": "RRIRYRPPRLPRPRPRPNIFPRP", "classification": "class 0"}
{"residue_codes": "RRIRERPPRLPRPRPRPEYSPRP", "classification": "class 0"}
{"residue_codes": "RRIRMRPPRLPRPRPRPYFSPRP", "classification": "class 0"}
{"residue_codes": "RRIRSRPPRLPRPRPRPEIIPRP", "classification": "class 0"}
{"residue_codes": "RRIRLRPPRLPRPRPRPMNLPRP", "classification": "class 0"}
{"residue_codes": "RRIRARPPRLPRPRPRPWCDPRP", "classification": "class 0"}
{"residue_codes": "RRIRLRPPRLPRPRPRPPMRPRP", "classification": "class 1"}
{"residue_codes": "RRIRKRPPRLPRPRPRPVHVPRP", "classification": "class 0"}
{"residue_codes": "RRIRQRPPRLPRPRPRPGEAPRP", "classification": "class 1"}
{"residue_codes": "RRIRVRPPRLPRPRPRPSNSPRP", "classification": "class 0"}
{"residue_codes": "RRIRKRPPRLPRPRPRPGGWPRP", "classification": "class 1"}
{"residue_codes": "RRIRTRPPRLPRPRPRPATHPRP", "classification": "class 0"}
{"residue_codes": "RRIRWRPPRLPRPRPRPNAPPRP", "classification": "class 1"}
{"residue_codes": "RRIRCRPPRLPRPRPRPVYTPRP", "classification": "class 0"}
{"residue_codes": "RRIRFRPPRLPRPRPRPPGIPRP", "classification": "class 1"}
{"residue_codes": "RRIRRRPPRLPRPRPRPSPDPRP", "classification": "class 1"}
{"residue_codes": "RRIRPRPPRLPRPRPRPLWHPRP", "classification": "class 0"}
{"residue_codes": "RRIRNRPPRLPRPRPRPHWWPRP", "classification": "class 1"}
{"residue_codes": "RRIRGRPPRLPRPRPRPIGYPRP", "classification": "class 0"}
{"residue_codes": "RRIRQRPPRLPRPRPRPSEKPRP", "classification": "class 0"}
{"residue_codes": "RRIRDRPPRLPRPRPRPKGMPRP", "classification": "class 0"}
{"residue_codes": "RRIRSRPPRLPRPRPRPHGYPRP", "classification": "class 0"}
{"residue_codes": "RRIRDRPPRLPRPRPRPNVQPRP", "classification": "class 0"}
{"residue_codes": "RRIRLRPPRLPRPRPRPLTGPRP", "classification": "class 0"}
{"residue_codes": "RRIRPRPPRLPRPRPRPHRDPRP", "classification": "class 0"}
{"residue_codes": "RRIRCRPPRLPRPRPRPCPNPRP", "classification": "class 0"}
{"residue_codes": "RRIRTRPPRLPRPRPRPPLWPRP", "classification": "class 1"}
{"residue_codes": "RRIRGRPPRLPRPRPRPSCIPRP", "classification": "class 1"}
{"residue_codes": "RRIRSRPPRLPRPRPRPFTIPRP", "classification": "class 0"}
